- System: L1210 leukemia ip in BDF1 mice, survival T/C
- METHOD_SUMMARY: NCI In Vivo Anticancer Drug Screen. Data for tumor model L1210 Leukemia (intraperitoneal) in B6D2F1 (BDF1) mice
- CONDITIONS_USED: endpoint: mean survival time; dose: 400.0 mg/kg/injection; schedule: Q01DX009 (ip); vehicle: Klucel (hydroxypropylcellulose) (HPC); higher = longer survival
Inconclusive results and toxic doses are left out.
ASSAY_METRIC: T/C

Lab note: measured T/C of CCCCN1C(=O)C2CCC34C5C(=O)N(CCCC)C(=O)C5C5C=CC3(C2C1=O)C1C(=O)N(CCCC)C(=O)C1N54 (configuration not stated) was 97 % of control

Lab note: measured T/C of CCOC(=O)C(NC(=O)NC)C(=O)OCC was 102 % of control

Lab note: measured T/C of C=CCOc1ccccc1Cl was 106 % of control

Lab note: measured T/C of O=C(Nc1cccc(F)c1)Nc1cccc([N+](=O)[O-])c1 was 97 % of control

Lab note: measured T/C of Cc1cccc(C2CCCC2c2ccccc2)c1 (configuration not stated) was 101 % of control

Lab note: measured T/C of Nc1nc(N)nc(-c2ccccc2NN=Nc2ccccc2[N+](=O)[O-])n1 was 100 % of control

Lab note: measured T/C of CCc1ccccc1NC(=O)Nc1cc(C)ccn1 was 102 % of control

Lab note: measured T/C of O=C(Nc1cccc(F)c1)Nc1ccccc1Cl was 95 % of control

Lab note: measured T/C of CCCCCCCCOc1ccc(C(=O)c2ccccc2)c(O)c1 was 94 % of control

Lab note: measured T/C of NC(=O)c1ccccc1NC(=O)COc1ccc(Cl)cc1 was 97 % of control

Lab note: measured T/C of O=C(Nc1cccc(Cl)c1)OCC(Cl)(Cl)Cl was 92 % of control

Lab note: measured T/C of Cc1cc(OC(=O)Nc2ccccc2Cl)ccc1[N+](=O)[O-] was 98 % of control

Values were extracted from PubChem BioAssay AID248.
